Measured Total Cell Count of individual entries
# Tested on: HEK-293T
# experiment notes: Multiplex assay against HEK293T
# Assay type: toxicity, cell-based
# assay context: human, 12 h, 10 µM, compound concentration 10 uM, replicate 1
recorded endpoint: Total Cell Count

CCOc1c2c(c(OCC)c3ncccc13)CN(c1ccc(CS(=O)(=O)NC(=O)Cc3ccccc3OC)cc1C)C2=O	367
COc1cc(NC(=O)CCN2CCC(OC(=O)Nc3ccccc3-c3ccccc3)CC2)c(Cl)cc1CNC[C@H](O)c1ccc(O)c2[nH]c(=O)ccc12	16
COc1ccccc1N1CCN(CCCCNC(=O)c2ccc3ccccc3c2)CC1.Cl	321
CCCN1CCC[C@@H]2Cc3n[nH]cc3C[C@H]21.Cl [QUINPIROLE HYDROCHLORIDE]	381
CSCC[C@H](NC=O)C(=O)N[C@@H](CC(C)C)C(=O)N[C@@H](Cc1ccccc1)C(=O)O	366
O=S(=O)(c1ccccc1)c1cnc2c(N3CCNCC3)cccc2c1 [INTEPIRDINE]	326
CN1CCN2c3ncccc3Cc3ccccc3C2C1 (stereo not drawn)	228
Cl.Clc1ccc2nsnc2c1NC1=NCCN1 [TIZANIDINE HYDROCHLORIDE]	450
